# PROTOCOL TEXT: MTT proliferation / drug combination assay, MDCKII-ABCB1
# CONDITION INFO: dog, MDCKII-ABCB1 cells
PROPERTY NAME: IC50 at 48 h (µM)
Answers are plain numbers, in µM.

# input Bench note: what IC50 at 48 h did C[C@@H]1CN(C(=O)c2ccc(NC(=O)c3cc(O[C@H](C)c4c(Cl)ccc(F)c4Cl)c(N)nn3)cc2)C[C@H](C)N1 show?
# output 23.9

---

# TARGET SYSTEM: ABCB1 (Homo sapiens, UniProt P08183)
# Construct: expressed in transfected cells; host or cells: MDCKII-ABCB1 (from Dr. Alfred Schinkel, The Netherlands Cancer Institute)
# Sequence (P08183 whole entry): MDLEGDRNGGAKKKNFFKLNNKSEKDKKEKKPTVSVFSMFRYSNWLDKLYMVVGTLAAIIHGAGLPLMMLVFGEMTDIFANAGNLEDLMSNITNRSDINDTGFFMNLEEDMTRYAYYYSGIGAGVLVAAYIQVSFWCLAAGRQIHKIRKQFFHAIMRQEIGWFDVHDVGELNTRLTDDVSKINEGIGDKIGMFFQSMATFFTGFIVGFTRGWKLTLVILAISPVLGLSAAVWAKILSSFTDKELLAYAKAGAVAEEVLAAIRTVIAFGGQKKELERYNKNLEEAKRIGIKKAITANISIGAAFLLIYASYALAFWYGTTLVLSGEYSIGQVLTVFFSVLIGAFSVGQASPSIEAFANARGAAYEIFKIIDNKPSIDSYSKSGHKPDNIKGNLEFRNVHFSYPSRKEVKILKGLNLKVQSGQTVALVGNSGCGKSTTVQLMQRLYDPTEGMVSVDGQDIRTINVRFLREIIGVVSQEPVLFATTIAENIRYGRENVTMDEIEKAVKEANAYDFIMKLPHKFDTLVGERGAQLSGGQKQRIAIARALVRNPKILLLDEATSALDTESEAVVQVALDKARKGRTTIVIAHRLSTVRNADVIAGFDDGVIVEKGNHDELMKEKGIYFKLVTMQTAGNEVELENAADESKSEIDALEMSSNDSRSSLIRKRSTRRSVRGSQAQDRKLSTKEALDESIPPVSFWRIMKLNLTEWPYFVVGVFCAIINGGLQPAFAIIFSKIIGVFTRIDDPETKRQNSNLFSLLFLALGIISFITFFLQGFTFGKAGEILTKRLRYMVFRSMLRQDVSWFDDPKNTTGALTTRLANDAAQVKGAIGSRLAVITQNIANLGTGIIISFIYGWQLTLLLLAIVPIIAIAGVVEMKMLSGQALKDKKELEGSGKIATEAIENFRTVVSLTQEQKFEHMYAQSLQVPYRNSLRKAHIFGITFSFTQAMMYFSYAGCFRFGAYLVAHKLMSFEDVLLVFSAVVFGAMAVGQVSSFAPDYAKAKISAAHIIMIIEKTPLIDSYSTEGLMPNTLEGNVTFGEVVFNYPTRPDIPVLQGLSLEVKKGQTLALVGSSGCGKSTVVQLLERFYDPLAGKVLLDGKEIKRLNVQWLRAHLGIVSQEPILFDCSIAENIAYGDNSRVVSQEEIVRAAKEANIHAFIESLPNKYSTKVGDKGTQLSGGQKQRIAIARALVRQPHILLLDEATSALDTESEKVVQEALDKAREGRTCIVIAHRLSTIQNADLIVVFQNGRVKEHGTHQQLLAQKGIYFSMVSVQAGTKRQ
# PROTOCOL TEXT: MDCKII monolayer transport assay, MDCKII-ABCB1
# Type: in vitro ADME
# CONDITION INFO: dog, MDCK-MDR1, 1 µM ensartinib, read-out: transport ratio (r), BA/AB
# Procedure: Transport assays were performed on microporous polycarbonate membrane filters (3 µm pore size, 24 mm diameter, Transwell 3414; Costar, Corning, NY, USA) using MDCKII parental as well as ABCB1-, ABCG2-, and ABCC1-overexpressing MDCKII cells. The cells were seeded at a density of 1.5 × 10^6 cells per insert and cultured to full confluence for 7 days with media exchanges on the second and fourth days. […] Ensartinib levels in samples were measured by UHPLC-MS/MS (see below). […]
PROPERTY NAME: efflux ratio at 4 h, 1 µM

# input Bench note: what efflux ratio at 4 h, 1 µM did C[C@@H]1CN(C(=O)c2ccc(NC(=O)c3cc(O[C@H](C)c4c(Cl)ccc(F)c4Cl)c(N)nn3)cc2)C[C@H](C)N1 [ensartinib, Ensartinib] show?
# output 15.6

---

# TARGET SYSTEM: ABCC1 (Homo sapiens)
# Construct: expressed in transfected cells; host or cells: MDCKII-ABCC1 (from Dr. Alfred Schinkel, The Netherlands Cancer Institute)
# Sequence (P33527 whole entry): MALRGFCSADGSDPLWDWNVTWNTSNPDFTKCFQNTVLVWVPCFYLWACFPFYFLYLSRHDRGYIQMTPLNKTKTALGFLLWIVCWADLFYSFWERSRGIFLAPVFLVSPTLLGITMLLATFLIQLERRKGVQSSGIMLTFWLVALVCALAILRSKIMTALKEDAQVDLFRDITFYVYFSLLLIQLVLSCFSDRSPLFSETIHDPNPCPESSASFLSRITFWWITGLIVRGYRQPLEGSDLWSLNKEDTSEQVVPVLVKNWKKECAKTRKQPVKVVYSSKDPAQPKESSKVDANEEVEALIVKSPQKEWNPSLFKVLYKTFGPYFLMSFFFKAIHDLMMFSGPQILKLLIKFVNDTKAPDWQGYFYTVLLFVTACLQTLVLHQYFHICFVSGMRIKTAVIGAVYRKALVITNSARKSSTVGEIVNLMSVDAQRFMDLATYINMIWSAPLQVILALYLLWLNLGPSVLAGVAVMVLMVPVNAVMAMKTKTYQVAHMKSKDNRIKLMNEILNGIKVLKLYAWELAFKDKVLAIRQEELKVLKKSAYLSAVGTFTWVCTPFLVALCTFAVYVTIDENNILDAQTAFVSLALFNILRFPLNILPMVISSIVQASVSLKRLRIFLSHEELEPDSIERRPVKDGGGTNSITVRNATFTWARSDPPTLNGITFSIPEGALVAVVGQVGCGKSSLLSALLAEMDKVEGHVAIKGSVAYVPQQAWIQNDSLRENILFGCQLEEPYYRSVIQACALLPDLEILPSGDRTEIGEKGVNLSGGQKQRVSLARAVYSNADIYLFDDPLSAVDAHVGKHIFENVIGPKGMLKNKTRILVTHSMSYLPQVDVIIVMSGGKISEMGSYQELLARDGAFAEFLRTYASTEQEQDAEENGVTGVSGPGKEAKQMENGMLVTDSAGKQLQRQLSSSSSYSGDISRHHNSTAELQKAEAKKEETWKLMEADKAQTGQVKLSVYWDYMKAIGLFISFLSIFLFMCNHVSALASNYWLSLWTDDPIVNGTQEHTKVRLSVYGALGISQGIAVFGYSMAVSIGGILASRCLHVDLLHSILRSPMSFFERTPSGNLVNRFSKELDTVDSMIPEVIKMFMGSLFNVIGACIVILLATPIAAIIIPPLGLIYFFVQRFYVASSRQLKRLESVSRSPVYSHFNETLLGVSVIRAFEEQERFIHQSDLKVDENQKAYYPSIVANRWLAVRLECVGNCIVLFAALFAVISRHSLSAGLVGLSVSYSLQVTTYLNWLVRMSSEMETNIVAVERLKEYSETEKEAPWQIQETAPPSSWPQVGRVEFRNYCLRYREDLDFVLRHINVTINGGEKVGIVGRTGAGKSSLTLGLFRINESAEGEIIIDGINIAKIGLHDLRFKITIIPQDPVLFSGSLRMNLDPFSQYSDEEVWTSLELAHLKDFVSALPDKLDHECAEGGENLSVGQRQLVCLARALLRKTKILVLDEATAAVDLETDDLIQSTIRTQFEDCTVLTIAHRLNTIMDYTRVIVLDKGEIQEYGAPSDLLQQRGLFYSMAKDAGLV
# PROTOCOL TEXT: calcein AM accumulation assay in MDCKII-ABCC1 cells
# Format: cell-based
# CONDITION INFO: read-out: IC50, inhibition of ABCC1-mediated calcein AM efflux
pIC50: −log10 of the molar value.
PROPERTY NAME: pIC50

# input Request - read-out pIC50 | tested on ABCC1 (Homo sapiens) | compound C[C@@H]1CN(C(=O)c2ccc(NC(=O)c3cc(O[C@H](C)c4c(Cl)ccc(F)c4Cl)c(N)nn3)cc2)C[C@H](C)N1
# output < 4.30

---

# Test system: A431-ABCC1 cells
# PROTOCOL TEXT: MTT proliferation assay, A431-ABCC1
# Assay type: cell-based
# CONDITION INFO: Homo sapiens, 48 h, read-out: IC50, sensitivity to ensartinib
PROPERTY NAME: pIC50
Give bare numbers, as −log10 of the molar value.

# input Bench note: what pIC50 did C[C@@H]1CN(C(=O)c2ccc(NC(=O)c3cc(O[C@H](C)c4c(Cl)ccc(F)c4Cl)c(N)nn3)cc2)C[C@H](C)N1 [ensartinib, Ensartinib] show?
# output 5.73

---

# TARGET SYSTEM: CYP2C8 (Homo sapiens, UniProt P10632)
# Sequence (P10632 1-490): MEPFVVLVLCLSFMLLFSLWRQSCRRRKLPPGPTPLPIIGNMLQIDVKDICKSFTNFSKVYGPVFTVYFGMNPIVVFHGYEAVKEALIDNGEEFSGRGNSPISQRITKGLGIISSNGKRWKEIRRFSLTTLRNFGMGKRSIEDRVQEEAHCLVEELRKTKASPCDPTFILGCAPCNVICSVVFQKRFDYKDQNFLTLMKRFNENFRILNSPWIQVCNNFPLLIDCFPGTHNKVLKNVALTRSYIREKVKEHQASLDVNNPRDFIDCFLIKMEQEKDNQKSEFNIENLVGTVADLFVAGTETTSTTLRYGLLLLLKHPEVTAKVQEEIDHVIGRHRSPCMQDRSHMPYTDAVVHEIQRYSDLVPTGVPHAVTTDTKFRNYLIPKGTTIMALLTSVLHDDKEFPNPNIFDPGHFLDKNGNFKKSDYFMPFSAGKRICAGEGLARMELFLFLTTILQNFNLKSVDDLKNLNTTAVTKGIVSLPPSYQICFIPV
# PROTOCOL TEXT: Vivid CYP screening kit, recombinant CYP2C8
# CONDITION INFO: recombinant enzyme, 15 min incubation, absolute IC50; read-out: CYP2C8 inhibition IC50
# Method: CYP inhibitory assay was performed as described previously. […] After a 10 min pre-incubation, the reaction was initiated by adding a mixture of NADP^+ and the appropriate Vivid substrate, after which fluorescence was measured at 1 min intervals for 60 min using an Infinite M200 Pro microplate reader (Tecan, Männedorf, Switzerland). […]
PROPERTY NAME: IC50 (µM)
Give bare numbers, in µM.

# input Bench note: what IC50 did C[C@@H]1CN(C(=O)c2ccc(NC(=O)c3cc(O[C@H](C)c4c(Cl)ccc(F)c4Cl)c(N)nn3)cc2)C[C@H](C)N1 show?
# output 20.6

---

# TARGET SYSTEM: ABCB1 (Homo sapiens)
# Construct: expressed in transfected cells; host or cells: MDCKII-ABCB1 (from Dr. Alfred Schinkel, The Netherlands Cancer Institute)
# PROTOCOL TEXT: hoechst 33342 accumulation assay in MDCKII-ABCB1 cells
# Format: cell-based
# CONDITION INFO: read-out: IC50, inhibition of ABCB1 (hoechst 33342 accumulation)
PROPERTY NAME: pIC50
Answers are plain numbers, as −log10 of the molar value.

# input Bench note: what pIC50 did C[C@@H]1CN(C(=O)c2ccc(NC(=O)c3cc(O[C@H](C)c4c(Cl)ccc(F)c4Cl)c(N)nn3)cc2)C[C@H](C)N1 [ensartinib, Ensartinib] show?
# output 5.43

---

# TARGET SYSTEM: ABCC1 (Homo sapiens)
# Construct: expressed in transfected cells; host or cells: MDCKII-ABCC1 (from Dr. Alfred Schinkel, The Netherlands Cancer Institute)
# PROTOCOL TEXT: MDCKII monolayer transport assay, MDCKII-ABCC1
# Format: in vitro ADME
# CONDITION INFO: dog, 1 µM ensartinib, read-out: transport ratio (r), BA/AB
PROPERTY NAME: efflux ratio at 4 h, 1 µM
Give bare numbers.

# input Request - read-out efflux ratio at 4 h, 1 µM | tested on ABCC1 (Homo sapiens) | compound C[C@@H]1CN(C(=O)c2ccc(NC(=O)c3cc(O[C@H](C)c4c(Cl)ccc(F)c4Cl)c(N)nn3)cc2)C[C@H](C)N1
# output 1.29

---

# TARGET SYSTEM: CYP3A4 (Homo sapiens, UniProt P08684)
# Sequence (P08684 2-503 limits assumed): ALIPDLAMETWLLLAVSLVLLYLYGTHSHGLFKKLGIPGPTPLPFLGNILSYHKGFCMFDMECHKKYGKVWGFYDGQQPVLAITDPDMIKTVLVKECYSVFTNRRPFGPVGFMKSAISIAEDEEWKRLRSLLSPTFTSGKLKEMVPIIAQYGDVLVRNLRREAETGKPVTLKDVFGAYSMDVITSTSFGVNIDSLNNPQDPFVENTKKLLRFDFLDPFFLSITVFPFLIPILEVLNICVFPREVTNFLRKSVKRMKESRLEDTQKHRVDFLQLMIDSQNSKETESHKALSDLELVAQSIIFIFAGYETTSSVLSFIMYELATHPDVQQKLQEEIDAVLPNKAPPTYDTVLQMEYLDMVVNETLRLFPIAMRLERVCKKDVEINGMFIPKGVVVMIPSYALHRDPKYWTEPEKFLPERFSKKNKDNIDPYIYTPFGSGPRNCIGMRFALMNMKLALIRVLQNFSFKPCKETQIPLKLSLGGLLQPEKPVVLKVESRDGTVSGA
# PROTOCOL TEXT: Vivid CYP screening kit, recombinant CYP3A4
# Assay type: biochemical
# Design: purchased Thermo Fisher Scientific; host or cells: insect microsomal fractions
# CONDITION INFO: recombinant enzyme, 15 min incubation, absolute IC50; read-out: CYP3A4 inhibition IC50
PROPERTY NAME: IC50 (µM)
One number for each entry, in µM.

# input Bench note: what IC50 did C[C@@H]1CN(C(=O)c2ccc(NC(=O)c3cc(O[C@H](C)c4c(Cl)ccc(F)c4Cl)c(N)nn3)cc2)C[C@H](C)N1 show?
# output 1.12

---

# TARGET SYSTEM: ABCB1 (Homo sapiens, UniProt P08183)
# Construct: expressed in transfected cells; host or cells: MDCKII-ABCB1 (from Dr. Alfred Schinkel, The Netherlands Cancer Institute)
# PROTOCOL TEXT: MDCKII monolayer transport assay, MDCKII-ABCB1
# Type: in vitro ADME
# CONDITION INFO: dog, MDCK-MDR1, with LY335979, 1 µM ensartinib + 1 µM LY335979, read-out: transport ratio (r), BA/AB, with ABCB1 inhibitor
PROPERTY NAME: efflux ratio at 4 h, 1 µM
Answers are plain numbers.

# input Bench note: what efflux ratio at 4 h, 1 µM did C[C@@H]1CN(C(=O)c2ccc(NC(=O)c3cc(O[C@H](C)c4c(Cl)ccc(F)c4Cl)c(N)nn3)cc2)C[C@H](C)N1 show?
# output 1.05

---

# TARGET SYSTEM: ABCG2 (Homo sapiens, UniProt Q9UNQ0)
# Construct: expressed in transfected cells; host or cells: MDCKII-ABCG2 (from Dr. Alfred Schinkel, The Netherlands Cancer Institute)
# Sequence (Q9UNQ0 1-655): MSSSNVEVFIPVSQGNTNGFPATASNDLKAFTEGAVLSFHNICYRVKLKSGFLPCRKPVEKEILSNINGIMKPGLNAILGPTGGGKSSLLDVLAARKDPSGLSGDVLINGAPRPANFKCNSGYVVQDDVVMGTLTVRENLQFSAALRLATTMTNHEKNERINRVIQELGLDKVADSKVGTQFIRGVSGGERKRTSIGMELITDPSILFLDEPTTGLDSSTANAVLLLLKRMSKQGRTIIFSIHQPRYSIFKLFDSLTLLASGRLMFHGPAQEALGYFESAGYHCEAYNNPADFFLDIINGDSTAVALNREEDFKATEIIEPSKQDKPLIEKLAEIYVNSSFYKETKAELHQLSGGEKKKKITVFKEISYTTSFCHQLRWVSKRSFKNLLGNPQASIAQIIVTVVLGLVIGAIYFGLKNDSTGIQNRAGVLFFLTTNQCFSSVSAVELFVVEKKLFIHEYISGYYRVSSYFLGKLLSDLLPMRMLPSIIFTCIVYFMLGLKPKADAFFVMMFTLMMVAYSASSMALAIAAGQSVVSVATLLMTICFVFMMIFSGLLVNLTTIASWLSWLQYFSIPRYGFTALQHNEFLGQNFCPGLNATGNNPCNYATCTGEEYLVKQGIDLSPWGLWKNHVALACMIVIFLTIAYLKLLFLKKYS
# PROTOCOL TEXT: MDCKII monolayer transport assay, MDCKII-ABCG2
# Format: in vitro ADME
# CONDITION INFO: dog, 1 µM ensartinib, read-out: transport ratio (r), BA/AB
PROPERTY NAME: efflux ratio at 4 h, 1 µM

# input Bench note: what efflux ratio at 4 h, 1 µM did C[C@@H]1CN(C(=O)c2ccc(NC(=O)c3cc(O[C@H](C)c4c(Cl)ccc(F)c4Cl)c(N)nn3)cc2)C[C@H](C)N1 show?
# output 1.15
